Target: anti-CD28 scFv (VH - linker 1 - VL) (biotinylated (site not stated))
Sequence (scFv, as listed by the source): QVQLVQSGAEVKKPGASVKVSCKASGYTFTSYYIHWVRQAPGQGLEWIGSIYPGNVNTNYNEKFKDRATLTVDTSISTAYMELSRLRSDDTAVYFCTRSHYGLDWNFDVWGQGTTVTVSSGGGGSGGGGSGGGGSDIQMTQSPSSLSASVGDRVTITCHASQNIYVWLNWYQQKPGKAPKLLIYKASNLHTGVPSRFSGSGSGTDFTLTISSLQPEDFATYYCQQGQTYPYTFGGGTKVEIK
Test: phage ELISA as above, wells pre-incubated with soluble CD28 (competitor);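 also: ELISA of crude clonal phage supernatants added to wells pre-treated with soluble CD28 in blocking buffer, bound phage read out with HRP-conjugated anti-M13 antibody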
Where no end group is shown, it is not given here.
This listing pairs binders with measured CD28 scFv signal in presence of CD28.

# Binder, CD28 scFv signal in presence of CD28
rows = [
    ("MDWCPRHLWDLCFF (peptide, not shown: large carriers, Clonal phage of the Peptide-9 library) [Phage-153]", 0.182),
    ("MHWCPLHLWNECYH (peptide, not shown: large carriers, Clonal phage of the Peptide-9 library) [Phage-155]", 0.113),
    ("MAWCPMNLWDQCFF (peptide, not shown: large carriers, Clonal phage of the Peptide-9 library) [Phage-159]", 0.145),
    ("MFWCPRYLWHECFN (peptide, not shown: large carriers, Clonal phage of the Peptide-9 library) [Phage-163]", 0.175),
    ("MDWCPKHLWHQCFH (peptide, not shown: large carriers, Clonal phage of the Peptide-9 library) [Phage-156]", 0.108),
    ("MDWCPRHLWSECFY (peptide, not shown: large carriers, cysteine pairing not given here; also: fused to phage pIII protein, pIII and linker sequence not given here, Clonal phage of the Peptide-9 library) [Phage-146]", 0.199),
]

The reported numbers originate from patent US20260242478A1.
